Please respond with reported inhibition at 100 µM for every item in the list.
Experiment: Antiplatelet activity in rabbit platelet-rich plasma assessed as inhibition of ADP-induced platelet aggregation at 0.1 mM preincubated for 5 mins followed by addition of ADP measured within 5 mins by Borns turbidimetric method
Assay type: functional
Details: Oryctolagus cuniculus
Answers are plain numbers, in %.

{"compound": "CCCCC(OC(=O)CN1CCN(CCOc2ccc(-c3cc(=S)ss3)cc2)CC1)c1ccccc1C(=O)Oc1ccc(/C=C/C(=O)OCCCCO[N+](=O)[O-])cc1OC (racemic)", "property": "inhibition at 100 µM", "quantitative-result": 19.7}
{"compound": "CCCCC(OC(=O)CN1CCN(CCCCCCOc2ccc(-c3cc(=S)ss3)cc2)CC1)c1ccccc1C(=O)Oc1ccc(/C=C/C(=O)OCCO[N+](=O)[O-])cc1OC (racemic)", "property": "inhibition at 100 µM", "quantitative-result": 19.7}
{"compound": "CCCCC(OC(=O)CN1CCN(CCCCCOc2ccc(-c3cc(=S)ss3)cc2)CC1)c1ccccc1C(=O)Oc1ccc(/C=C/C(=O)OCCO[N+](=O)[O-])cc1OC (racemic)", "property": "inhibition at 100 µM", "quantitative-result": 41}

Please give inhibition at 100 µM for each item listed below.
1. CCCCC(OC(=O)CN1CCN(CCCCOc2ccc(-c3cc(=S)ss3)cc2)CC1)c1ccccc1C(=O)Oc1ccc(/C=C/C(=O)OCCCCO[N+](=O)[O-])cc1OC (racemic)
2. CCCCC(OC(=O)CN1CCN(CCCOc2ccc(-c3cc(=S)ss3)cc2)CC1)c1ccccc1C(=O)Oc1ccc(/C=C/C(=O)OCCO[N+](=O)[O-])cc1OC (racemic)
3. CCCCC(OC(=O)CN1CCN(CCOc2ccc(-c3cc(=S)ss3)cc2)CC1)c1ccccc1C(=O)Oc1ccc(/C=C/C(=O)OCCO[N+](=O)[O-])cc1OC (racemic)

Data returned:
1: 19.7; 2: 19.7; 3: 19.7
